Below, each of the binders is paired with its reported relative MFI normalized to full-length human CD137 value.
# Tested target: human/mouse CD137 chimera 1555 (human/mouse chimera) (UniProt Q07011)
# Method summary: flow cytometry, transfected 293-F cells
Readout type: relative MFI normalized to full-length human CD137

1) 1626/1627 (antibody, V domains shown) VH: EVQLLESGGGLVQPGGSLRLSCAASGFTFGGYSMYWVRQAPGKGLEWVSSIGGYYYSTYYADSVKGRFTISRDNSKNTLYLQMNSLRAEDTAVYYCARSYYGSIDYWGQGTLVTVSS VL: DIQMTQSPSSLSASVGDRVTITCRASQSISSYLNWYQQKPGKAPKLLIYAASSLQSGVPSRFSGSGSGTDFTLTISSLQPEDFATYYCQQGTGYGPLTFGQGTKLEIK ... 0.29
2) 1202/1203 (antibody, V domains shown) VH: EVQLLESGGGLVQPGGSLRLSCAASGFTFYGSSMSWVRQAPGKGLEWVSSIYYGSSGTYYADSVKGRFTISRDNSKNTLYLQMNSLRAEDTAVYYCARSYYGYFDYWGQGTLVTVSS VL: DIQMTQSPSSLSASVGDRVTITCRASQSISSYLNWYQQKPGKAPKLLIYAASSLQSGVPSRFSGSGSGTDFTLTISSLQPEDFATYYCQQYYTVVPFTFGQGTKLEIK ... 0.26
3) 1204/1205 (antibody, V domains shown) VH: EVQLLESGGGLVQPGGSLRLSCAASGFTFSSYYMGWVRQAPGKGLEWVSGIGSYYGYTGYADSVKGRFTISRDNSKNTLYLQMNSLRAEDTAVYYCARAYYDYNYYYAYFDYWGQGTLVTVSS VL: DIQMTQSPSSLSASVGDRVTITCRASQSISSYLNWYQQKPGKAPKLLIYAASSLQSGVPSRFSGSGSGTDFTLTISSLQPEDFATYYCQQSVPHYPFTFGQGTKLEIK ... 0.28
4) 1620/1621 (antibody, V domains shown) VH: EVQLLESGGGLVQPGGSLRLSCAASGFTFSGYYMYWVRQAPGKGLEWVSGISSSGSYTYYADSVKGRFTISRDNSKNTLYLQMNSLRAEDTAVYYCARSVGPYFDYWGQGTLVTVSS VL: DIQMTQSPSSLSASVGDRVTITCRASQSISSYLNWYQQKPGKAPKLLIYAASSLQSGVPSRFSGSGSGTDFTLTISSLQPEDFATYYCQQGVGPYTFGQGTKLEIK ... 0.32
5) 1618/1619 (antibody, V domains shown) VH: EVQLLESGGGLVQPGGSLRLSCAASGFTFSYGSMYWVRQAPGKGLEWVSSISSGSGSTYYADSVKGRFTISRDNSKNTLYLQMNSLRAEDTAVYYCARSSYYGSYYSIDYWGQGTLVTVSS VL: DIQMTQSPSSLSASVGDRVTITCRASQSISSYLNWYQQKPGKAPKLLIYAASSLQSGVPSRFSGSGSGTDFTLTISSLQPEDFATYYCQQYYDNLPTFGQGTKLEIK ... 0.12
6) 1200/1201 (antibody, V domains shown) VH: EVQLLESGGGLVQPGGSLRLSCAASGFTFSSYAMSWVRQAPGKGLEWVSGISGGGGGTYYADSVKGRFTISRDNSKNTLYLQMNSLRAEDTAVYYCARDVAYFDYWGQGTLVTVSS VL: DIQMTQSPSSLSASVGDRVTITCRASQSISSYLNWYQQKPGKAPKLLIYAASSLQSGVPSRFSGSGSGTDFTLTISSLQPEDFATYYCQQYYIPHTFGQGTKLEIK ... 0.24
